molecular target: human CLDN6 fused to GFP, expressed on engineered HEK293T cells (human) (UniProt P56747); test: FACS, 293T clone with human CLDN6, 1.5 ug Ab
reported.metric: FACS signal
Answer with the value's number alone.

Exercise: For the binder AB18-6 (antibody, V domains shown) VH: QVQLVQSGAEVKKPGASVKISCKASGYSFTGYNMNWVRQAPGQGLEWIGNIDPYYGGSTYAQKFQGRATLTVDTSTSTAYMELSSLRSEDTAVYYCARERSGYVFSAMDYWGQGTLVTVSS VL: DIVMTQSPDSLAVSLGERVTMNCKSSQSVLFSSNQKNYLAWYQQKPGQPPKLLIYWASTRESGVPDRFSGSGSGTDFTLTISSVQAEDVAVYYCHQYLSSRTFGQGTKLEIK , report FACS signal.
Solution: 58500

Exercise: For the binder AB9-chim (antibody, V domains shown) VH: EVQLQQSGPELVKPGASVKMSCKASGYRFTDYNMHWVKQSHGKSLEWIGYINPNNGGTNYNQNFKGKATLTVNKSSSTAYMELRSLTSEDSAAYYCARDYLYFFDCWGQGTTLTVSS VL: DIQMTQSPASQSASLGESVTITCLASQTIGTWLAWYQQKPGKSPQLLIYAAASLADGVPSRFSGSGSGTRFSFKISSLQAEDFVSYYCQQLYSIPRTFGGGTKLEIK , report FACS signal.
Solution: 72000

Exercise: For the binder AB4-7 (antibody, V domains shown) VH: QVQLVQSGAEVKKPGASVKMSCKASGYTFTSYTMHWIRQAPGQGQEWIGYINPSSTYTHYAQKFQGRATLTADKSTSTAYMELSSLRSEDTAVYYCSRGELGGFAYWGQGTLVTVSS VL: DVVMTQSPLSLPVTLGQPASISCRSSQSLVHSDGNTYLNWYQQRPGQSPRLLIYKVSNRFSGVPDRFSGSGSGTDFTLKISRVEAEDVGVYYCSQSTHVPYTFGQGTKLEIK , report FACS signal.
Solution: 33300
